Origin of measurements: the Human Domainome abundance scans (Beltran et al. 2025)

B1: Tesmin, residues 368 to 403; numbered along this chain, Q9Y4I5 (parent)
chain: KGCNCRRSGCLKNYCECYEAQIMCSSICKCIGCKNY

# Variants of: B1
# Protocol details: abundance fitness (aPCA) (normalised: wild type 0, dead -1); higher = more abundant; growth selection in yeast, the domain comes from the species named
# Recorded conditions: Homo sapiens
Quantity: abundance fitness
Give a plain numeric answer without units written out.

Y14N :: 0.267
E19N :: -0.351
K12M :: -0.323
L11H :: 0.297
K12Y :: -0.831
C5S :: -0.342
C10R :: -0.539
C10A :: -0.141
N13W :: -0.755
C30R :: -0.425

Task: // returns reported abundance fitness for input C17V
Result: -0.415

Task: What does the record list as abundance fitness for I31G ?
Result: 0.15

Task: // returns reported abundance fitness for input N13V
Result: -0.619

Task: I would be grateful if you could share the reported abundance fitness for C10K .
Result: -0.323

Task: Name the recorded abundance fitness for K12C .
Result: -0.622

Task: # lookup: abundance fitness of Y18Q
Result: 0.107

Task: Need abundance fitness, item S25E
Result: -0.315

Task: I have this variant here, R7I , and I need its recorded abundance fitness.
Result: -0.336

Task: What value of abundance fitness has been reported for the following variant? N4Y
Result: -0.226

Task: Which abundance fitness value belongs to K34V ?
Result: 0.152

Task: // abundance fitness lookup, key: S8R
Result: -0.169

Task: For the variant shown here, G9W , give the reported abundance fitness.
Result: -1.51

Task: Requested field: abundance fitness. Item: I27T
Result: 0.159

Task: Fill blank: measured abundance fitness of the variant C10E is ____.
Result: 0.004

Task: May I ask what abundance fitness has been recorded for N13I ?
Result: -0.398

Task: If you can, please state the reported abundance fitness value of S25H .
Result: -0.269

Task: Please give the measured abundance fitness for this variant: C10W
Result: -0.418

Task: Value lookup for abundance fitness; key = C30P
Result: -0.209

Task: Recorded abundance fitness for M23V , please?
Result: -0.1

Task: Param item = N35D ; retrieve measured abundance fitness.
Result: 0.18

Task: Which value of abundance fitness has been reported for A20W in the records?
Result: -0.295

Task: Fill blank: measured abundance fitness of the variant S26K is ____.
Result: 0.032
